experiment: Aqueous solubility at pH 6.8 or pH 1.2; type: physicochemical; details: aqueous solution, pH 1.2, simulated gastric fluid; read-out: aqueous solubility at pH 1.2
# solubility listing for each entry below
reportedProperty: solubility (µM)

- recordSmiles: "O=C(Nc1ccc(C(F)(F)F)c(F)c1)N1CC=C(c2ncccc2Cl)CC1"
  measurement: 39.6
- recordSmiles: "O=C(Nc1ccc(C(F)(F)F)c(F)c1)N1CCC(F)(c2ncccc2Cl)CC1"
  measurement: 9.3
- recordSmiles: "O=C(Nc1ccc(C(F)(F)F)c(Cl)c1)N1CC=C(c2ncccc2F)CC1"
  measurement: 9.6

====

experiment: Aqueous solubility at pH 6.8 or pH 1.2; type: physicochemical; details: aqueous solution, pH 6.8, aqueous buffer; read-out: aqueous solubility at pH 6.8
reportedProperty: solubility (µM)

- compound: "O=C(Nc1ccc(C(F)(F)F)c(F)c1)N1CCC(F)(c2ncccc2Cl)CC1 [Compound 209]"
  reportedProperty: "solubility"
  measurement: 1
- compound: "O=C(Nc1ccc(C(F)(F)F)c(F)c1)N1CC=C(c2ncccc2Cl)CC1 [Compound 213]"
  reportedProperty: "solubility"
  measurement: 0.8
- compound: "O=C(Nc1ccc(C(F)(F)F)c(Cl)c1)N1CC=C(c2ncccc2F)CC1 [Compound 215]"
  reportedProperty: "solubility"
  measurement: 0.6
